The reported measurements were obtained from paper PMC10460844.

# Tested on: rat erythrocytes
# experimentalDetails: Hemolysis assay
# Assay type: cell-based
Counter-ions that a name gives are not always drawn. Square brackets hold non-standard residues; d marks the D form. Peptide text beside a SMILES is read from it. Gly(N(CH2)2(3-indolyl)) = O=C(O)CNCCc1c[nH]c2ccccc12; Nspe = C[C@H](NCC(=O)O)c1ccccc1; Nlys = NCCCCNCC(=O)O

[
  {
    "molecule": "C[C@@H](c1ccccc1)N(CC(N)=O)C(=O)CN(C(=O)CN(CCCCN)C(=O)CN(C(=O)CN(C(=O)CN(CCCCN)C(=O)CN(C(=O)CN(C(=O)CN(CCCCN)C(=O)CN(CCc1c[nH]c2ccccc12)C(=O)CN(CCc1c[nH]c2ccccc12)C(=O)CNCCCCN)[C@@H](C)c1ccccc1)[C@@H](C)c1ccccc1)[C@@H](C)c1ccccc1)[C@@H](C)c1ccccc1)[C@@H](C)c1ccccc1 [peptoid 14]",
    "Hmax (100 µM), %": 112.9
  },
  {
    "molecule": "C[C@@H](c1ccccc1)N(CC(N)=O)C(=O)CN(CCCCN)C(=O)CN(CCCCN)C(=O)CN(C(=O)CN(C(=O)CN(CCCCN)C(=O)CN(CCc1c[nH]c2ccccc12)C(=O)CN(C(=O)CN(CCCCN)C(=O)CN(C(=O)CN(C(=O)CNCCCCN)[C@@H](C)c1ccccc1)[C@@H](C)c1ccccc1)[C@@H](C)c1ccccc1)[C@@H](C)c1ccccc1)[C@@H](C)c1ccccc1 [peptoid 24]",
    "Hmax (100 µM), %": 1.5
  },
  {
    "molecule": "C[C@@H](c1ccccc1)N(CC(=O)N(CCCCN)CC(=O)N(CC(=O)N(CC(=O)N(CCCCN)CC(=O)N(CC(=O)N(CC(=O)N(CCCCN)CC(=O)N(CCc1c[nH]c2ccccc12)CC(=O)N(CCc1c[nH]c2ccccc12)CC(N)=O)[C@@H](C)c1ccccc1)[C@@H](C)c1ccccc1)[C@@H](C)c1ccccc1)[C@@H](C)c1ccccc1)C(=O)CN(C(=O)CNCCCCN)[C@@H](C)c1ccccc1 [11-HCl] (H-[Nlys][Nspe][Nspe][Nlys][Nspe][Nspe][Nlys][Nspe][Nspe][Nlys][Gly(N(CH2)2(3-indolyl))][Gly(N(CH2)2(3-indolyl))]-NH2)",
    "Hmax (100 µM), %": 113.9
  },
  {
    "molecule": "C[C@@H](c1ccccc1)N(CC(N)=O)C(=O)CN(C(=O)CN(CCCCN)C(=O)CN(CCc1c[nH]c2ccccc12)C(=O)CN(C(=O)CN(CCCCN)C(=O)CN(C(=O)CN(C(=O)CN(CCCCN)C(=O)CN(C(=O)CN(C(=O)CNCCCCN)[C@@H](C)c1ccccc1)[C@@H](C)c1ccccc1)[C@@H](C)c1ccccc1)[C@@H](C)c1ccccc1)[C@@H](C)c1ccccc1)[C@@H](C)c1ccccc1 [peptoid 8]",
    "Hmax (100 µM), %": 105.1
  }
]

====

# System: rat erythrocytes
# experimentalDetails: Hemolysis assay
# Format: cell-based
Square brackets hold non-standard residues; d marks the D form. Peptide text beside a SMILES is read from it. Gly(N(CH2)2(3-indolyl)) = O=C(O)CNCCc1c[nH]c2ccccc12; Nspe = C[C@H](NCC(=O)O)c1ccccc1; Nlys = NCCCCNCC(=O)O
propertyLabel: Hmax (100 µM) (%)

[
  {
    "molecule": "C[C@@H](c1ccccc1)N(CC(=O)N(CCCCN)CC(=O)N(CC(=O)N(CC(=O)N(CCCCN)CC(=O)N(CC(=O)N(CC(=O)N(CCCCN)CC(=O)N(CCc1c[nH]c2ccccc12)CC(=O)N(CCc1c[nH]c2ccccc12)CC(N)=O)[C@@H](C)c1ccccc1)[C@@H](C)c1ccccc1)[C@@H](C)c1ccccc1)[C@@H](C)c1ccccc1)C(=O)CN(CCCCN)C(=O)CNCCCCN [peptoid 31] (H-[Nlys][Nlys][Nspe][Nlys][Nspe][Nspe][Nlys][Nspe][Nspe][Nlys][Gly(N(CH2)2(3-indolyl))][Gly(N(CH2)2(3-indolyl))]-NH2)",
    "unitsOfMeasure": "%",
    "measuredResult": 18.4
  }
]
